Tested on: Trichophyton benhamiae
Experiment: Minimum inhibitory concentration against Trichophyton mentagrophytes
Assay type: functional, Arthroderma benhamiae
Property: MIC; scope: individual molecules
Record the value in µg/mL, omitting the unit from your answer.

>>> value_observed("CC(C)OC(=O)c1ccc(/N=C(\\S)Nc2cccc(/N=C(/S)Nc3ccc(C(=O)OC(C)C)cc3)c2)cc1")
32
>>> value_observed("CCOC(=O)c1ccc(/N=C(\\S)Nc2cccc(/N=C(/S)Nc3ccc(C(=O)OCC)c(O)c3)c2)cc1O")
32
>>> value_observed("O=C(NNc1ccccc1)c1ccc(NC(=S)Nc2ccc(NC(=S)Nc3ccc(C(=O)NNc4ccccc4)cc3)cc2)cc1")
16

# MIC lookup, item `CCOC(=O)c1ccc(/N=C(\S)Nc2cccc(/N=C(/S)Nc3ccc(C(=O)OCC)cc3)c2)cc1`
64

Query: MIC; subject: `COC(=O)c1ccc(/N=C(\S)Nc2cccc(/N=C(/S)Nc3ccc(C(=O)OC)c(O)c3)c2)cc1O`
64

For the molecule shown here, `O=C(O)c1ccc(/N=C(\S)Nc2ccc(/N=C(/S)Nc3ccc(C(=O)O)c(O)c3)cc2)cc1O` , give the reported MIC.
128

Provenance of the data: ChEMBL document CHEMBL1147423
